Molecular target: CYP1A2 (Homo sapiens, UniProt P05177)
Sequence (P05177 1-516): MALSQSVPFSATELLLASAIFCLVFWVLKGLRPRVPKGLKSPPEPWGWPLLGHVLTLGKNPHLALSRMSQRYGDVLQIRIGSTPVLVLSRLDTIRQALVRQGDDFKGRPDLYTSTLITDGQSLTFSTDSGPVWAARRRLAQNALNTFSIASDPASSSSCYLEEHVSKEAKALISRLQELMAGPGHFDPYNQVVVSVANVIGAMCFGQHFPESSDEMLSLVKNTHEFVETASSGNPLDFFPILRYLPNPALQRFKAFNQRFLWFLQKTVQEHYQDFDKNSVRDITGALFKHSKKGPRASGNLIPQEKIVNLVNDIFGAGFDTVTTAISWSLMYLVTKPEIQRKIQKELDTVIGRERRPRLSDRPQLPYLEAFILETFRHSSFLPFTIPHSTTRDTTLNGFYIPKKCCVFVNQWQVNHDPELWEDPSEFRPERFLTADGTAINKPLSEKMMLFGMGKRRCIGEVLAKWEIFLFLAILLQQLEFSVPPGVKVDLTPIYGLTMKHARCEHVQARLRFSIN
Assay: in vitro
Details: E. coli expressed CYP1A2, pH 7.4, probe CEC 5 μM
Quick rule: inhibition at 15 min, 10 μM of at least 7% means YES, below that means NO.

Consider the worked cases shown below.
[[record]]
smiles = "CC(C)CN(C[C@@H](O)[C@H](Cc1ccccc1)NC(=O)OCc1cncs1)C(=O)c1ccc2nc(N3CCCCC3)oc2c1"
class_assignment = "YES"

[[record]]
smiles = "CCN(C)c1nc2ccc(C(=O)N(CC(C)C)C[C@@H](O)[C@H](Cc3ccccc3)NC(=O)OCc3ccncc3)cc2o1"
class_assignment = "YES"

[[record]]
smiles = "CCN(C[C@@H](O)[C@H](Cc1ccccc1)NC(=O)OCc1cncs1)C(=O)c1ccc2nc(N(C)CC)oc2c1"
class_assignment = "NO"

[[record]]
smiles = "CCN(C)c1nc2ccc(C(=O)N(CC(C)C)C[C@@H](O)[C@H](Cc3ccc(F)cc3)NC(=O)OCc3cncs3)cc2o1"
class_assignment = "NO"


Attention now turns to another entry.
Enquiry: API: above_or_equal(metric=inhibition at 15 min, 10 μM, cutoff=7%) for item "Cc1nc2ccc(C(=O)N(CC(C)C)C[C@@H](O)[C@H](Cc3ccccc3)NC(=O)OCc3cncs3)cc2o1"
Return: NO
